Listing: normalized growth of selected molecules
- Assay summary: chemical genetic growth profiling, strain panel (AID 1159580);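 note: tested at 20 µM; growth read once vehicle control cultures reached saturation at 30 °C; 1 = growth at the plate median or of vehicle wells; lower values mean less growth of the strain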
- Recorded conditions: S. cerevisiae deletion strains, growth OD, locus YLR262C, strain YPT6, stronger effect = lower value
About 2,000 (36%) of roughly 5,500 compounds were called active. Another 18% or so got no clear call; they are omitted. Some of the results follow.
Endpoint: normalized growth

Molecule	Test value
NC(N)=NC(N)=Nc1ccccc1C(F)(F)F	0.997
CC(=O)O[C@H]1C[C@@]2(C)[C@@H](C[C@@H](O)C3[C@]2(C)CC[C@H]2[C@H](C)[C@H](O)CC[C@]32C)/C1=C(/CCC=C(C)C)C(=O)O (stereo partly drawn)	0.997
CCc1cccc(C)c1NC(=O)CC(C)(C)CC(=O)O	1.02
Cc1cccc(C)c1NC(=O)C1CCCCN1C (stereo not drawn)	0.996
CCCN(CCC)S(=O)(=O)c1ccc(C(=O)NCC(=O)O)cc1	1.01
Cc1onc(-c2ccccc2)c1-c1ccc(S(N)(=O)=O)cc1	0.986
O=NN(CCCl)C(=O)NCCCl	0.988
NNC(=O)c1cnn(-c2ccc(Cl)cc2)c1C(F)(F)F	1.01

###

- Assay summary: chemical genetic growth profiling, strain panel (AID 1159580);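 note: tested at 20 µM; growth read once vehicle control cultures reached saturation at 30 °C; 1 = growth at the plate median or of vehicle wells; lower values mean less growth of the strain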
- Recorded conditions: S. cerevisiae deletion strains, growth OD, locus YNL271C, strain bni1, stronger effect = lower value
Among all 5,500 compounds or so, about 2,000 (36%) were called active. Inconclusive results (about 18%) are left out. This is one part of the list.
Endpoint: normalized growth

Molecule	Test value
O=C(O)C1CCCNC1 (stereo not given)	1.02
COC1=CC(=O)OC(CCc2ccc(OC)c(OC)c2)C1 (stereo not given)	1.01
COc1ccc(CCC(=O)c2c(O)cc(O[C@@H]3O[C@H](CO)C(O)[C@H](O)C3O[C@@H]3O[C@@H](C)[C@H](O)[C@@H](O)[C@H]3O)cc2O)cc1O (stereo not given in full)	0.981
CCCn1c(=O)c2[nH]c(C3CCCC3)nc2n(CCC)c1=O	0.974
O=C1CCCCC/C=C/CCCCCCCCO1	0.991
Cc1cc(/C=C/c2ccc3cc(N(C)C)ccc3[n+]2C)c(C)n1-c1ccccc1	1.02
COC(=O)/C(C)=C\CC12OC(C)(C)C3CC(C=C4C(=O)c5c(OC)c6c(c(CC=C(C)C)c5OC431)OC(C)(CCC=C(C)C)C=C6)C2=O (stereo not given)	0.982
COc1ccc2c(c1)OCC(Cc1ccc(OC)c(OC)c1)C2=O (stereo not given)	0.989
Cc1oncc1C(=O)Nc1ccc(C(F)(F)F)cc1	0.993
O=c1oc2ccccc2cc1O	0.987

###

- Assay summary: chemical genetic growth profiling, strain panel (AID 1159580);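 note: tested at 20 µM; growth read once vehicle control cultures reached saturation at 30 °C; 1 = growth at the plate median or of vehicle wells; lower values mean less growth of the strain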
- Recorded conditions: S. cerevisiae deletion strains, growth OD, locus YOL147C, strain pex11, stronger effect = lower value
The whole screen tested about 5,500 compounds, of which about 2,000 (36%) were called active. Not shown: some 18% with an inconclusive outcome. The list shows a part of the results.
Threshold check on normalized growth: strictly below 1 is class 1; on or above 1 is class 0.

Molecule	Group label
Clc1ccc(COC(Cn2ccnc2)c2ccc(Cl)cc2Cl)cc1 (configuration not stated)	class 1
Clc1ccc(COC(Cn2ccnc2)c2ccc(Cl)cc2Cl)c(Cl)c1 (configuration not stated)	class 1
C[C@]12CCC3C(CC[C@H]4C[C@@H](O)CC[C@]34C)C1CC[C@@H]2O (some centres not stated)	class 0
